Test: CHI Log D procedure
Type: physicochemical
Condition details: pH 7.4
Measured endpoint: CHI Log D

- Molecule: "C[C@@H]1NC(=O)[C@H](C)NC(=O)[C@H](CN(CC(=O)O)CC(F)(F)F)NC(=O)[C@H](Cc2ccsc2)NC(=O)C2(CCCC=CCCCOC(=O)N3CC[C@@](C(=O)N[C@@H](CC(=O)O)C(=O)N[C@@H](Cc4csc5ccccc45)C(=O)N[C@@H](CCC(N)=O)C(N)=O)(C3)NC(=O)[C@H](CC(N)=O)NC(=O)[C@H](Cc3ccccc3)NC1=O)CCCC=CC[C@]1(CCCN1C(=O)CN=[N+]=[N-])C(=O)N[C@@H](CC(=O)O)C(=O)N[C@@H](CC(C)(C)C)C(=O)N2 (stereo partly drawn) [I-1056]"
  Quantitative result: 1.929
- Molecule: "CC(=O)N1CCC[C@]12CC=CCCCC1(CCCC=CCCCOC(=O)N3CC[C@@](C(=O)N[C@@H](Cc4ccsc4)C(=O)N[C@@H](Cc4csc5ccccc45)C(=O)N[C@@H](CO)C(N)=O)(C3)NC(=O)[C@H](CO)NC(=O)[C@H](Cc3ccccc3)NC(=O)[C@H](C)NC(=O)[C@H](C)NC(=O)[C@H](CN(CC(=O)O)CC(F)(F)F)NC(=O)[C@H](CC(=O)O)NC1=O)NC(=O)[C@H](CC(C)(C)C)NC(=O)[C@H](CC(=O)O)NC2=O (stereo partly drawn) [I-954]"
  Quantitative result: 1.918
- Molecule: "CC[C@H](C)[C@@H]1NC(=O)[C@H](CC(=O)O)NC(=O)[C@]2(CC=CCCCC3(CCCC=CCCCCCC[C@@](C)(C(=O)N[C@@H](Cc4ccsc4)C(=O)N[C@@H](Cc4csc5ccccc45)C(=O)N[C@@H](CCC(N)=O)C(N)=O)NC(=O)[C@H](CC(N)=O)NC(=O)[C@H](Cc4ccccc4)NC(=O)[C@H](C)NC(=O)[C@H](C)NC(=O)[C@H](CC(=O)O)NC(=O)[C@H](CC(=O)O)NC3=O)NC1=O)CCCN2C(C)=O (stereo partly drawn) [I-551]"
  Quantitative result: 2.278

###

The compounds listed here are annotated with their IC50.
Experimental target: beta-catenin/TCF4 engagement (Homo sapiens)
Construct: expressed in transfected cells; host or cells: HEK293
Test: Nano-BRET target engagement assay (B-cat-Halo & TCF4-Luc in HEK293 cells)
Assay type: cell-based
Condition details: read-out: NanoBRET Abs IC50
Measured endpoint: IC50 (µM)

- Compound: "CC(=O)N1CCC[C@]12CC=CCCCC1(CCCC=CCCCOC(=O)N3CC[C@@](C(=O)N[C@@H](Cc4ccsc4)C(=O)N[C@@H](Cc4csc5ccccc45)C(=O)N[C@@H](CC(N)=O)C(N)=O)(C3)NC(=O)[C@H](CO)NC(=O)[C@H](Cc3ccccc3)NC(=O)[C@H](C)NC(=O)[C@H](C)NC(=O)[C@H](Cc3cccc(C(=O)O)c3)NC(=O)[C@H](CC(=O)O)NC1=O)NC(=O)[C@H](CC(C)(C)C)NC(=O)[C@H](CC(=O)O)NC2=O (some centres unmarked)"
  Measured endpoint: "IC50"
  Readout unit: "µM"
  Quantitative result: 13.5
- Compound: "CC(=O)N1CCC[C@]12CC=CCCCC1(CCCC=CCCCOC(=O)N3CC[C@@](C(=O)N[C@@H](Cc4ccsc4)C(=O)N[C@@H](Cc4csc5ccccc45)C(=O)N[C@@H](C)C(N)=O)(C3)NC(=O)[C@H](Cc3ccccc3)NC(=O)[C@H](Cc3ccccc3)NC(=O)[C@H](C)NC(=O)[C@H](CCC(N)=O)NC(=O)[C@H](Cc3cccc(C(=O)O)c3)NC(=O)[C@H](CC(=O)O)NC1=O)NC(=O)[C@H](CC(C)(C)C)NC(=O)[C@H](CC(=O)O)NC2=O (some centres unmarked)"
  Measured endpoint: "IC50"
  Readout unit: "µM"
  Quantitative result: 6
- Compound: "CC(=O)N1CCC[C@]12CC=CCCCC1(CCCC=CCCCOC(=O)N3CC[C@@](C(=O)N[C@@H](Cc4ccsc4)C(=O)N[C@@H](Cc4csc5ccccc45)C(=O)N[C@@H](CCC(N)=O)C(N)=O)(C3)NC(=O)[C@H](Cn3cc(CN(C)C)nn3)NC(=O)[C@H](Cc3ccccc3)NC(=O)[C@H](C)NC(=O)[C@H](C)NC(=O)[C@H](CN(CC(=O)O)CC(F)(F)F)NC(=O)[C@H](CC(=O)O)NC1=O)NC(=O)[C@H](CC(C)(C)C)NC(=O)[C@H](CC(=O)O)NC2=O (some centres unmarked) [I-1861]"
  Measured endpoint: "IC50"
  Readout unit: "µM"
  Quantitative result: 37.3
- Compound: "CC(=O)N1CCC[C@]12CC=CCCCC1(CCCC=CCCCOC(=O)N3CC[C@@](C(=O)N[C@@H](Cc4ccsc4)C(=O)N[C@@H](Cc4csc5ccccc45)C(=O)N[C@@H](CCC(N)=O)C(N)=O)(C3)NC(=O)[C@H](CC(C)C)NC(=O)[C@H](Cc3ccccc3)NC(=O)[C@H](C)NC(=O)[C@H](C)NC(=O)[C@H](CCn3cc(-c4ccccc4C(=O)O)nn3)NC(=O)[C@H](CC(=O)O)NC1=O)NC(=O)[C@H](CC(C)(C)C)NC(=O)[C@H](CC(=O)O)NC2=O (some centres unmarked) [I-2080]"
  Measured endpoint: "IC50"
  Readout unit: "µM"
  Quantitative result: 28.8
- Compound: "CC(=O)N1CCC[C@]12CC=CCCCC1(CCCC=CCCCOC(=O)N3CC[C@@](C(=O)N[C@@H](Cc4ccsc4)C(=O)N[C@@H](Cc4csc5ccccc45)C(=O)N[C@@H](C)C(N)=O)(C3)NC(=O)[C@H](CC(C)C)NC(=O)[C@H](Cc3ccccc3)NC(=O)[C@H](C)NC(=O)[C@H](Cc3c[nH]cn3)NC(=O)[C@H](Cc3cccc(C(=O)O)c3)NC(=O)[C@H](CC(=O)O)NC1=O)NC(=O)[C@H](CC(C)(C)C)NC(=O)[C@H](CC(=O)O)NC2=O (some centres unmarked)"
  Measured endpoint: "IC50"
  Readout unit: "µM"
  Quantitative result: 9.2

###

Experimental target: full-length beta-Catenin (Uniprot ID P35222) (Homo sapiens, UniProt P35222)
Construct: 10 nM full-length beta-Catenin (Uniprot ID P35222)
Test: Fluorescence polarization IC50 (beta-catenin / 5FAM-TCF4 10-53 competition)
Type: binding
Condition details: fluorescence polarization; read-out: beta-Catenin FP IC50

- Compound: "CC(=O)N1CCC[C@]12CC=CCCCC1(CCCC=CCCCCCC[C@@](C)(C(=O)N[C@@H](Cc3ccccc3)C(=O)N[C@@H](Cc3csc4ccccc34)C(=O)N[C@@H](CCC(N)=O)C(N)=O)NC(=O)[C@H](CC(N)=O)NC(=O)[C@H](Cc3ccccc3)NC(=O)[C@H](C)NC(=O)[C@H](C)NC(=O)[C@H](CCC(=O)O)NC(=O)[C@H](CC(=O)O)NC1=O)NC(=O)[C@H](CC1CCCCC1)NC(=O)[C@H](CC(=O)O)NC2=O (stereo partly drawn) [I-620]"
  Experimental target: "full-length beta-Catenin (Uniprot ID P35222) (Homo sapiens, UniProt P35222)"
  IC50: "35 nM"
- Compound: "CCCCCCCC(=O)N1CCC[C@]12CC=CCCCC1(CCCC=CCCCOC(=O)N3CC[C@@](C(=O)N[C@@H](Cc4ccccc4)C(=O)N[C@@H](Cc4csc5ccccc45)C(=O)N[C@@H](CO)C(N)=O)(C3)NC(=O)[C@H](CO)NC(=O)[C@H](Cc3ccccc3)NC(=O)[C@H](C)NC(=O)[C@H](C)NC(=O)[C@H](CC(=O)O)NC(=O)[C@H](CC(=O)O)NC1=O)NC(=O)[C@H](CC(C)(C)C)NC(=O)[C@H](CC(=O)O)NC2=O (stereo partly drawn) [I-1355]"
  Experimental target: "full-length beta-Catenin (Uniprot ID P35222) (Homo sapiens, UniProt P35222)"
  IC50: "213 nM"
- Compound: "CC(=O)N1CCC[C@]12CCCCCCC1(CCCCCCCCOC(=O)N3CC[C@@](C(=O)N[C@@H](Cc4ccccc4C(F)(F)F)C(=O)N[C@@H](Cc4csc5ccccc45)C(=O)N[C@@H](CCC(N)=O)C(N)=O)(C3)NC(=O)[C@H](CC(C)C)NC(=O)[C@H](Cc3ccccc3)NC(=O)[C@H](C)NC(=O)[C@H](C)NC(=O)[C@H](CN(CC(=O)O)CC(F)(F)F)NC(=O)[C@H](CC(=O)O)NC1=O)NC(=O)[C@H](CC(C)(C)C)NC(=O)[C@H](CC(=O)O)NC2=O (stereo partly drawn) [I-1714]"
  Experimental target: "full-length beta-Catenin (Uniprot ID P35222) (Homo sapiens, UniProt P35222)"
  IC50: "372 nM"

###

Experimental target: beta-catenin/TCF4 engagement (Homo sapiens, UniProt P35222)
Construct: expressed in transfected cells; host or cells: HEK293
Sequence (P35222 1-781): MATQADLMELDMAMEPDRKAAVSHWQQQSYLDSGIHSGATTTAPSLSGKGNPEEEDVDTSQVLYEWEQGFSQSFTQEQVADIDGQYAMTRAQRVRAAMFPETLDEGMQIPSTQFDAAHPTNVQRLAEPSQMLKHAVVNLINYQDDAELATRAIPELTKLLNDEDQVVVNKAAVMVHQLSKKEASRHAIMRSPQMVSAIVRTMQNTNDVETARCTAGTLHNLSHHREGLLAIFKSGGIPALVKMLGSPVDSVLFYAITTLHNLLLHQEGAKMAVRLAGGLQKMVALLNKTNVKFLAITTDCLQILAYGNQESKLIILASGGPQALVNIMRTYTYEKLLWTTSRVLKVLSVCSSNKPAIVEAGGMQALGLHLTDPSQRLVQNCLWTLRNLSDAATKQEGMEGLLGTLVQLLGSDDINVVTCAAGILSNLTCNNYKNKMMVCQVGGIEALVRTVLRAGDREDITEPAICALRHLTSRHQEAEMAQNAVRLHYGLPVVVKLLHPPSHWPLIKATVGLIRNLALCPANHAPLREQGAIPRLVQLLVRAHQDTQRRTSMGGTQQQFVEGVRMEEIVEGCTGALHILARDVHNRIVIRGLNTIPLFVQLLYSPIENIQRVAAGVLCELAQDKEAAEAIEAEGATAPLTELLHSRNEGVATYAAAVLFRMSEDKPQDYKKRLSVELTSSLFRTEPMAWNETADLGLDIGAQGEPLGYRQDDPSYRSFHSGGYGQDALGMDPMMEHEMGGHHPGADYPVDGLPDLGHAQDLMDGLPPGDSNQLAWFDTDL
Test: Nano-BRET target engagement assay (B-cat-Halo & TCF4-Luc in HEK293 cells)
Assay type: cell-based
Condition details: read-out: NanoBRET Abs IC50

- Compound: "CC(=O)N1CCC[C@]12CC=CCCCC1(CCCC=CCCCOC(=O)N3CC[C@@](C(=O)N[C@@H](Cc4ccsc4)C(=O)N[C@@H](Cc4csc5ccccc45)C(=O)N[C@@H](Cc4c[nH]cn4)C(N)=O)(C3)NC(=O)[C@H](CCCNC(N)=O)NC(=O)[C@H](Cc3ccccc3)NC(=O)[C@H](C)NC(=O)[C@H](C)NC(=O)[C@H](CC(=O)O)NC(=O)[C@H](CC(=O)O)NC1=O)NC(=O)[C@H](CC(C)(C)C)NC(=O)[C@H](CC(=O)O)NC2=O (some centres unmarked) [I-806]"
  Experimental target: "beta-catenin/TCF4 engagement (Homo sapiens, UniProt P35222)"
  Relational operator: "="
  IC50 (µM): 21.6
- Compound: "CC(=O)N1CCC[C@]12CC=CCCCC1(CCCC=CCCCOC(=O)N3CC[C@@](C(=O)N[C@@H](Cc4ccsc4)C(=O)N[C@@H](Cc4csc5ccccc45)C(=O)N[C@@H](CCC(N)=O)C(=O)N[C@@H](CCCCNC(=O)CCc4cccc5ccccc45)C(N)=O)(C3)NC(=O)[C@H](CC(N)=O)NC(=O)[C@H](Cc3ccccc3)NC(=O)[C@H](C)NC(=O)[C@H](C)NC(=O)[C@H](CC(=O)O)NC(=O)[C@H](CC(=O)O)NC1=O)NC(=O)[C@H](CC(C)(C)C)NC(=O)[C@H](CC(=O)O)NC2=O (some centres unmarked) [I-903]"
  Experimental target: "beta-catenin/TCF4 engagement (Homo sapiens, UniProt P35222)"
  Relational operator: "="
  IC50 (µM): 7.8
- Compound: "CC(=O)N1CCC[C@]12CC=CCCCC1(CCCC=CCCCOC(=O)N3CC[C@@](C(=O)N[C@@H](Cc4ccccc4)C(=O)N[C@@H](Cc4csc5ccccc45)C(=O)N[C@@H](CCO)C(N)=O)(C3)NC(=O)[C@H](CC(N)=O)NC(=O)[C@H](Cc3ccccc3)NC(=O)[C@H](C)NC(=O)[C@H](CCC(N)=O)NC(=O)[C@H](CCC(N)=O)NC(=O)[C@H](CC(=O)O)NC1=O)NC(=O)[C@H](CC1CCCCC1)NC(=O)[C@H](CC(N)=O)NC2=O (some centres unmarked) [I-2067]"
  Experimental target: "beta-catenin/TCF4 engagement (Homo sapiens, UniProt P35222)"
  Relational operator: ">"
  IC50 (µM): 20
- Compound: "CC(=O)N1CCC[C@]12CC=CCCCC1(CCCC=CCCCOC(=O)N3CC[C@@](C(=O)N[C@@H](Cc4ccsc4)C(=O)N[C@@H](Cc4csc5ccccc45)C(N)=O)(C3)NC(=O)[C@H](CC(N)=O)NC(=O)[C@H](Cc3ccccc3)NC(=O)[C@H](C)NC(=O)[C@H](C)NC(=O)[C@H](CC(N)=O)NC(=O)[C@H](CC(=O)O)NC1=O)NC(=O)[C@H](CC(C)(C)C)NC(=O)[C@H](CC(=O)O)NC2=O (some centres unmarked) [I-857]"
  Experimental target: "beta-catenin/TCF4 engagement (Homo sapiens, UniProt P35222)"
  Relational operator: "="
  IC50 (µM): 30.6
- Compound: "CC(=O)N1CCC[C@]12CC=CCC1(CC=CCCCCCOC(=O)N3CC[C@](C(=O)N[C@@H](Cc4ccsc4)C(=O)N[C@@H](Cc4csc5ccccc45)C(=O)N[C@@H](CCC(N)=O)C(N)=O)(C3)NC(=O)[C@H](CC(C)C)NC(=O)[C@H](Cc3ccccc3)NC(=O)[C@H](C)NC(=O)[C@H](C)NC(=O)[C@H](CC(=O)O)NC(=O)[C@H](CC(=O)O)NC1=O)NC(=O)[C@H](CC(C)(C)C)NC(=O)[C@H](CC(=O)O)NC2=O (single isomer, unassigned) [I-2158]"
  Experimental target: "beta-catenin/TCF4 engagement (Homo sapiens, UniProt P35222)"
  Relational operator: ">"
  IC50 (µM): 20

Each recorded value in this set is attributed to patent US20240116985A1.
